- assay.system: DLG3-2 (Homo sapiens, UniProt Q92796)
- Sequence (Q92796 244-330): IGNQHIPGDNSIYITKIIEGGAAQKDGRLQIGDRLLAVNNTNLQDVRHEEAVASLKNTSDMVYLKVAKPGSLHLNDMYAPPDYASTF
- assay.protocol: Holdup assay, DLG3-2
- Format: binding
experimental.endpoint: BI

Challenge: Provide the reported BI (system: DLG3-2 (Homo sapiens, UniProt Q92796)) for CC[C@H](C)[C@H](NC(=O)[C@H](CCC(N)=O)NC(=O)[C@@H](NC(=O)[C@H](Cc1c[nH]cn1)NC(=O)[C@H](CCC(N)=O)NC(=O)[C@H](CC(=O)O)NC(=O)[C@H](CCC(=O)O)NC(=O)[C@H](CC(=O)O)NC(=O)CCC(=O)NCCCOCCOCCOCCCNC(=O)CCCC[C@@H]1SC[C@@H]2NC(=O)N[C@@H]21)[C@@H](C)O)C(=O)N[C@H](C(=O)N[C@@H](CCCCN)C(=O)N[C@H](C(=O)O)C(C)C)[C@@H](C)O
Response given: 0.13
